Source listed as ChEMBL document CHEMBL3612049.

System: Pseudomonas aeruginosa
Assay: Antimicrobial activity against Pseudomonas aeruginosa ATCC 13525 after 18 hrs by broth microdilution method
Type: functional
Details: ATCC 13525, 18 h
reported-metric: MIC (µg/mL)
Hi! Could you send only the number? It should be in µg/mL, unit omitted.

Cc1ncc([N+](=O)[O-])n1CCOC(=O)c1ccccc1OCc1ccc(C(C)C)cc1
6.25

Now consider a different molecule.
Output measured MIC for this item: Cc1ncc([N+](=O)[O-])n1CCOC(=O)c1ccccc1OCc1ccc(C(F)(F)F)cc1
50

----------
Assay: Cytotoxicity against human macrophages after 24 hrs by MTT assay
Format: cell-based, Macrophage
Please use true (1) for CC50 at 24 h under 200 µM and false (0) for everything else, ties included.

Cc1ncc([N+](=O)[O-])n1CCOC(=O)c1ccccc1OCc1cccc(F)c1
true (1)

As a next step, examine the compound that follows.
Please indicate whether the reported CC50 at 24 h of Cc1ncc([N+](=O)[O-])n1CCOC(=O)c1ccccc1OCc1c(F)cccc1F is strictly below 200 µM.
false (0)

----------
Tested on: Pseudomonas aeruginosa
Test: Antimicrobial activity against Pseudomonas aeruginosa ATCC 13525 after 18 hrs by broth microdilution method
Type: functional
Settings: ATCC 13525, 18 h
reported-metric: MIC (µg/mL)
Hi! Could you send only the number? It should be in µg/mL, unit omitted.

Reference set, count: 5
Cc1ncc([N+](=O)[O-])n1CCOC(=O)c1ccccc1OCc1cccc(Cl)c1F
6.25
Cc1ncc([N+](=O)[O-])n1CCOC(=O)c1ccccc1OCc1cc(Cl)ccc1Cl
6.25
Cc1ncc([N+](=O)[O-])n1CCOC(=O)c1ccccc1OCc1ccc(F)c(F)c1
100
Cc1ncc([N+](=O)[O-])n1CCOC(=O)c1ccccc1OCc1cccc(Cl)c1
12.5
Cc1ncc([N+](=O)[O-])n1CCOC(=O)c1ccccc1OCc1c(F)cccc1F
50

Output measured MIC for this item: Cc1ncc([N+](=O)[O-])n1CCOC(=O)c1ccccc1OCc1ccc(Cl)c(F)c1
6.25

Output measured MIC for this item: Cc1ccc(COc2ccccc2C(=O)OCCn2c([N+](=O)[O-])cnc2C)cc1
12.5

Output measured MIC for this item: Cc1ncc([N+](=O)[O-])n1CCOC(=O)c1ccccc1OCc1cc(F)c(F)c(F)c1
50

Output measured MIC for this item: Cc1ncc([N+](=O)[O-])n1CCOC(=O)c1ccccc1OCc1ccc(Cl)cc1
12.5

Output measured MIC for this item: Cc1cc(C)cc(COc2ccccc2C(=O)OCCn2c([N+](=O)[O-])cnc2C)c1
12.5

Output measured MIC for this item: Cc1ncc([N+](=O)[O-])n1CCOC(=O)c1ccccc1OCc1ccccc1Cl
12.5

----------
Experiment: Cytotoxicity against human macrophages after 24 hrs by MTT assay
Type: cell-based, Macrophage
Recorded CC50 at 24 h by entry
Hi! Could you send only the number? It should be in µM, unit omitted.

Cc1ncc([N+](=O)[O-])n1CCOC(=O)c1ccccc1OCc1cc(Cl)ccc1Cl
193
Cc1ncc([N+](=O)[O-])n1CCOC(=O)c1ccccc1OCc1cccc(C(F)(F)F)c1
251
Cc1ncc([N+](=O)[O-])n1CCOC(=O)c1ccccc1OCc1ccccc1F
155

Output measured CC50 at 24 h for this item: Cc1ncc([N+](=O)[O-])n1CCOC(=O)c1ccccc1OCc1ccc(Cl)c(Cl)c1
188

Output measured CC50 at 24 h for this item: Cc1ncc([N+](=O)[O-])n1CCOC(=O)c1ccccc1OCc1cccc(Cl)c1F
190

Output measured CC50 at 24 h for this item: Cc1ncc([N+](=O)[O-])n1CCOC(=O)c1ccccc1OCc1ccc(C(F)(F)F)cc1
242

Output measured CC50 at 24 h for this item: Cc1ncc([N+](=O)[O-])n1CCOC(=O)c1ccccc1OCc1ccccc1Cl
213

Output measured CC50 at 24 h for this item: Cc1cc(C)cc(COc2ccccc2C(=O)OCCn2c([N+](=O)[O-])cnc2C)c1
252

Output measured CC50 at 24 h for this item: Cc1ncc([N+](=O)[O-])n1CCOC(=O)c1ccccc1OCc1c(F)c(F)c(F)c(F)c1F
236
